- assay_method_text: H9c2 cell viability (MTT) assay
- Assay type: cell-based, rat
- cond: rat, H9c2 cardiomyocytes, 1 µM, 24 h, MTT
readout_name: viability at 24 h, 1 µM (%)
Numbers only here, please. The scale is %.

Below are worked cases with known answers.
INSERT INTO results (compound, quantity_unit, observed_value) VALUES
  ('C[C@H]1CCC[C@H](CC(=O)O)O1 [Compound 6]', '%', 98.1),
  ('CC1C=CC(=O)C2(C)CCC3C4C(C)(CC(O)C4(C)C)CC132 (stereo not drawn) [Compound 2, 13-epi-conidiogenone F]', '%', 98.1),
  ('C[C@H]1CCC[C@H](C[C@@H](O)CC(=O)O)O1 [Compound 5, antaketide A]', '%', 94.4),
  ('CC12CC(=O)C(C)(C)C1C1CCC3(C)C(=O)C=CC(C)(O)C13C2 (centres unmarked) [Compound 1, 4-hydroxyleptosphin C]', '%', 94.8);

Please look at the following compound next.
Record CC1C=CC(=O)C2(C)CCC3C4C(C)(CC(=O)C4(C)C)CC132 (centres unmarked) [Compound 4, leptosphin C] , field viability at 24 h, 1 µM: 107

====

- system_tested: sortase A from S. aureus (Staphylococcus aureus)
- Construct: purchased AnaSpec AS-72229
- Sequence (Q2FV99 whole entry): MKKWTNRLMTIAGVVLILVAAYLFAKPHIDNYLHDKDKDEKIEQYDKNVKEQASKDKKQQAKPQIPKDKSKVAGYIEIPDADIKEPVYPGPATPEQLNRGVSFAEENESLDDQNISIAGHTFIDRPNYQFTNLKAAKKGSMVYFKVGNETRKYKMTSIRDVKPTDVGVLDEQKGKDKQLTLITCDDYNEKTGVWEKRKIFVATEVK
- assay_method_text: Sortase A activity inhibition assay (SensoLyte 520 kit, cell-free)
- Type: biochemical
- cond: read-out: inhibition of sortase A activity, 50 µM, after 10 min of incubation
readout_name: inhibition at 50 µM
Quote the value and follow it with the unit of measurement.

Some molecules with recorded inhibition at 50 µM:
INSERT INTO results (molecule, readout_name, observed_value) VALUES
  ('CC1C=CC(=O)C2(C)CCC3C4C(C)(CC(=O)C4(C)C)CC132 (stereo not shown) [Compound 4, leptosphin C]', 'inhibition at 50 µM', '20%'),
  ('C[C@H]1CCC[C@H](CC(=O)O)O1 [Compound 6]', 'inhibition at 50 µM', '16.8%'),
  ('CC12CC(=O)C(C)(C)C1C1CCC3(C)C(=O)C=CC(C)(O)C13C2 (stereo not shown) [Compound 1, 4-hydroxyleptosphin C]', 'inhibition at 50 µM', '28.2%');

// next item, inhibition at 50 µM requested
Recorded inhibition at 50 µM (molecule C[C@H]1CCC[C@H](C[C@@H](O)CC(=O)O)O1 [Compound 5, antaketide A] ): 25.5%

====

- assay_method_text: H9c2 cell viability (MTT) assay
- Assay type: cell-based, rat
- cond: rat, H9c2 cardiomyocytes, 100 µM, 24 h, MTT
Some compounds, each annotated with its measured viability at 24 h, 100 µM.
Write the number in % without appending the unit.

Examples with answers:
INSERT INTO assay_data (compound, quantity_unit, observed_value) VALUES
  ('CC12CC(=O)C(C)(C)C1C1CCC3(C)C(=O)C=CC(C)(O)C13C2 (stereo not shown) [Compound 1, 4-hydroxyleptosphin C]', '%', 63.2),
  ('C[C@H]1CCC[C@H](CC(=O)O)O1', '%', 54.6),
  ('C[C@H]1CCC[C@H](C[C@@H](O)CC(=O)O)O1 [Compound 5, antaketide A]', '%', 74.1);

viability at 24 h, 100 µM reported for this compound CC1C=CC(=O)C2(C)CCC3C4C(C)(CC(=O)C4(C)C)CC132 (stereo not shown) : 92.3

====

- Test system: S. aureus biofilm formation
- assay_method_text: Crystal violet biofilm formation assay, S. aureus
- Assay type: cell-based, Staphylococcus aureus
- cond: Staphylococcus aureus; S. aureus biofilm; read-out: half-maximal concentration (IC50) of the biofilm formation inhibition
readout_name: IC50 (µM)
Give the value in µM but do not write µM after it.

get_value(item= CC1C=CC(=O)C2(C)CCC3C4C(C)(CC(=O)C4(C)C)CC132 (stereo not shown) [Compound 4, leptosphin C] , readout=IC50) returns 85.5

====

- assay_method_text: H9c2 cell viability (MTT) assay
- Type: cell-based, rat
- cond: rat, H9c2 cardiomyocytes, 10 µM, 24 h, MTT
This listing pairs compounds with measured viability at 24 h, 10 µM.
Respond with a number, then the unit of measure.

Looking up CC12CC(=O)C(C)(C)C1C1CCC3(C)C(=O)C=CC(C)(O)C13C2 (centres unmarked) [Compound 1, 4-hydroxyleptosphin C] , I found its viability at 24 h, 10 µM recorded as 65.7%

Please fill in: viability at 24 h, 10 µM reported for C[C@H]1CCC[C@H](C[C@@H](O)CC(=O)O)O1 [Compound 5, antaketide A] = 88.5%

The reported value for C[C@H]1CCC[C@H](CC(=O)O)O1 in terms of viability at 24 h, 10 µM is 80.9%

Form: compound = CC1C=CC(=O)C2(C)CCC3C4C(C)(CC(O)C4(C)C)CC132 (stereo not drawn) [Compound 2, 13-epi-conidiogenone F] ; viability at 24 h, 10 µM = 107%

Record summary for CC1C=CC(=O)C2(C)CCC3C4C(C)(CC(=O)C4(C)C)CC132 (centres unmarked) : reported viability at 24 h, 10 µM = 102%

These data points were gathered from paper PMC10672241.
